- System: CCRF-CEM
- Method Notes: Compound was tested for cellular toxicity against HIV in CEM cells at concentration up to 100 uM; IA means inactive
- Type: cell-based
- Assay Conditions: human
Reported Metric: Toxicity

Nc1ccn([C@@H]2C=C[C@H](CO)O2)c(=O)n1    Not Active
Nc1ccn(C2CC[C@H](CO)O2)c(=O)n1 (single isomer, unassigned)    Not Active
Cc1cn([C@@H]2C=C[C@H](CO)O2)c(=O)[nH]c1=O    Not Active
Nc1ncnc2c1ncn2[C@H]1CC[C@@H](CO)O1 (single isomer, unassigned)    Not Active
